test system: Vero E6 infected with SARS-CoV-2; test: SARS-CoV-2 infection rate relative to infected DMSO; higher = more infection, active = 60 or less; conditions: 24 h

# MOLECULE, SYSTEM, SARS-CoV-2 infection rate, %
rows = [
    ("C[N+]1(C)CCC(OC(=O)C(O)(c2ccccc2)C2CCCC2)C1 (stereo not drawn) [glycopyrrolate] (10 µM)", "Vero E6 infected with SARS-CoV-2", 107),
    ("CCN1CCN(c2cc(-c3ccc(F)cc3)c3c(n2)CCCCCC3)CC1 [blonanserin] (10 µM)", "Vero E6 infected with SARS-CoV-2", 107),
    ("CCOC(=O)c1ncc2[nH]c3ccc(OCc4ccccc4)cc3c2c1COC (10 µM)", "Vero E6 infected with SARS-CoV-2", 97.5),
    ("CNC[C@H](O)c1cccc(O)c1 [phenylephrine] (10 µM)", "Vero E6 infected with SARS-CoV-2", 110),
    ("CC1CCN(CCCC(=O)c2ccc(F)cc2)CC1 [melperone] (10 µM)", "Vero E6 infected with SARS-CoV-2", 80.5),
    ("c1cc(CN2CCCCC2)cc(OCCCNc2nc3ccccc3s2)c1 [zolantidine] (10 µM)", "Vero E6 infected with SARS-CoV-2", 44),
    ("O=C(NC1CCOCC1)c1ccc(-c2cc(-c3c[nH]nc3-c3ccccn3)ccn2)cc1 (10 µM)", "Vero E6 infected with SARS-CoV-2", 114),
    ("Cl/C(=C\\n1cncn1)c1ccc(Cl)cc1Cl [loreclezole] (10 µM)", "Vero E6 infected with SARS-CoV-2", 102),
    ("NS(=O)(=O)c1ccc2c(c1)C1C=CCC1C(c1ccc(Br)cc1)N2 (stereo not drawn) (10 µM)", "Vero E6 infected with SARS-CoV-2", 95),
    ("Cc1cc(CN)cc(C)c1NC(=O)c1ccc(-c2cc(Cl)ccc2Cl)o1 (10 µM)", "Vero E6 infected with SARS-CoV-2", 7.5),
    ("C[C@H](NC(=O)C(C)(C)Oc1ccc(C(F)(F)F)cn1)[C@@H](Cc1ccc(Cl)cc1)c1cccc(C#N)c1 [taranabant] (10 µM)", "Vero E6 infected with SARS-CoV-2", 101),
    ("C#C[C@]1(OC(=O)CCCCCC)CC[C@H]2[C@@H]3CCC4=CC(=O)CC[C@@H]4[C@H]3CC[C@@]21C [norethisterone-enanthate] (10 µM)", "Vero E6 infected with SARS-CoV-2", 96.5),
    ("COc1cc(OC)c(C(=O)CCCN2CCCC2)c(OC)c1 [buflomedil] (10 µM)", "Vero E6 infected with SARS-CoV-2", 102),
    ("O=C(Oc1ccc(Br)cc1)N1CCN2CCC1CC2 (10 µM)", "Vero E6 infected with SARS-CoV-2", 92),
    ("Oc1ccnc2cc(Cl)ccc12 [chloroxoquinoline] (10 µM)", "Vero E6 infected with SARS-CoV-2", 99.5),
    ("CC(CCc1ccc(O)cc1)NCCc1ccc(O)c(O)c1 (stereo not drawn) [dobutamine] (10 µM)", "Vero E6 infected with SARS-CoV-2", 113),
    ("Fc1ccc(C(OCCN2CCN(C/C=C/c3ccccc3)CC2)c2ccc(F)cc2)cc1 (10 µM)", "Vero E6 infected with SARS-CoV-2", 65.5),
    ("COc1cc2c(cc1OC)C(=O)C(CC1CCN(Cc3ccccc3)CC1)C2 (stereo not drawn) [donepezil] (10 µM)", "Vero E6 infected with SARS-CoV-2", 100),
]
